Values were extracted from patent US5457119A.

Measured Measurement in zone units values are reported for all entries that follow.
Test system: L1210 murine leukemia cell line
protocolNotes: Disk diffusion soft agar colony formation assay
Format: cell-based
studyConditions: factor line, no dose given, 200 zone units = 6 MM
Experimental: The method of performing the disk diffusion soft agar colony […] assay is described in Chapter 3 of Cytotoxic Anticancer Drugs: Models and Concepts for Drug Discovery and Development (Frederick A. Valeriote, et al., eds., 1990). In addition to the procedure taught in this reference, one mL ethanol was added to each dry factor in a vial, and the desired concentration of solution was placed on a paper disk. […]
recordedMetric: Measurement in zone units (zone units)

compound: [C-]#[N+]C1C2c3c(C(C)(C)C=C)[nH]c4cccc(c34)C(C)(C)C2CC(Cl)C1(C)C=C (centres unmarked) [A89271 B]
recordedMetric: Measurement in zone units
measurement: 210

compound: [C-]#[N+]C1C(C)(C=C)CCC2C(C)(C)c3cccc4[nH]c(C(C)(C)C=C)c(c34)C12O (centres unmarked) [A89271 E]
recordedMetric: Measurement in zone units
measurement: 280

compound: [C-]#[N+]C12C3OC3C(C)(C)c3[nH]c4cccc5c4c3C1(O)C(CCC2(C)C=C)C5(C)C (centres unmarked) [A89271 I]
recordedMetric: Measurement in zone units
measurement: 260
